- Measurement notes: A-B and B-A permeability (Caco-2, pH 7.4/7.4)
- Type: in vitro ADME, human
- Particulars: human; Caco-2, 10 μM, pH 7.4/7.4
Reported endpoint: Papp A→B at 10 μM

Compound: [2H]C([2H])([2H])Oc1cccc(-c2cc(F)c(NC(=O)C3=C(C(=O)NOC)CCC3)c(F)c2)c1 [Example 4]
Reported endpoint: Papp A→B at 10 μM
Value: 1.6 ×10⁻⁶ cm/s

###

- Measurement notes: Rat pharmacokinetics, oral cassette dosing
- Set-up: species or system Sprague Dawley rats
- Particulars: Sprague Dawley, in vivo, female rats, oral cassette, calculated to infinity
- Excerpt: […]
AUC(0-inf) values by entry
Reported endpoint: AUC(0-inf)

Compound: [2H]C([2H])([2H])ONC(=O)C1=C(C(=O)Nc2c(F)c(F)c(-c3cccc(OC([2H])([2H])[2H])c3)c(F)c2F)COC1 [Example 5/5]
Value: 252 µM·h
//
Compound: CONC(=O)C1=C(C(=O)Nc2c(F)c(F)c(-c3cccc(OC)c3)c(F)c2F)COC1 [Example 5/9]
Value: 185 µM·h
//
Compound: [2H]C([2H])([2H])Oc1cccc(-c2c(F)c(F)c(NC(=O)C3=C(C(=O)NOC)COC3)c(F)c2F)c1 [Example 5/4]
Value: 271 µM·h
